Molecular target: Gastrin/cholecystokinin type B receptor (Cavia porcellus)
Test: In vitro inhibition of binding of [3H]pCCK-8 against Cholecystokinin type B receptor of guinea pig cerebral cortex membranes
property: Ki (nM)
Lab book: enter the figure in nM, no units written.

input: Fill in Ki for record CC(=O)Nc1cccc(NC(=O)NC2C(=O)N(CC34C[C@H]5C[C@@H](C3)C[C@@H](C4)C5)c3ccccc3N(c3ccccc3)C2=O)c1 (stereo not given in full)
output: 1.3

----------
Target: Gastrin/cholecystokinin type B receptor (Cavia porcellus)
Experiment: In vitro inhibition of binding of [3H]pCCK-8 against Cholecystokinin type B receptor of guinea pig cerebral cortex membranes
pKi: −log10 of the molar value.
Threshold rule: pKi greater than or equal to 9 is TRUE; below that, FALSE.

>>> print(df.to_string())
                                   compound  group
0  CC(C)(C)CCN1C(=O)C(NC(=O)Nc2cccc(OC(F)(F)F)c2)C(=O)N(c2ccccc2)c2ccccc21 (stereo not drawn)  FALSE
1  O=C(Nc1cccc(CO)c1)NC1C(=O)N(CC23C[C@H]4C[C@@H](C2)C[C@@H](C3)C4)c2ccccc2N(c2ccccc2)C1=O (stereo partly drawn)   TRUE
2  CC(C)(C)CCN1C(=O)C(NC(=O)Nc2cccc(C3N=NN=N3)c2)C(=O)N(c2ccccc2)c2ccccc21 (stereo not drawn)   TRUE

Let us examine a further case.
input: Decide: is the reported value of pKi for CC(C)CC(C)N1C(=O)C(NC(=O)Nc2ccccc2)C(=O)N(c2ccccc2)c2ccccc21 (stereo not drawn) equal to or greater than 9?
output: FALSE

----------
Biological target: Gastrin/cholecystokinin type B receptor (Cavia porcellus)
Assay: In vitro inhibition of binding of [3H]pCCK-8 against Cholecystokinin type B receptor of guinea pig cerebral cortex membranes
pKi: −log10 of the molar value.
Threshold rule: pKi greater than or equal to 9 is fulfilled; below that, not fulfilled.

>>> print(df.to_string())
                                   compound      group
0  Nc1cccc(NC(=O)NC2C(=O)N(CC34C[C@H]5C[C@@H](C3)C[C@@H](C4)C5)c3ccccc3N(c3ccccc3)C2=O)c1 (stereo not given in full)  fulfilled

input: Decide: is the reported value of pKi for CN(C)c1cccc(NC(=O)NC2C(=O)N(c3ccccc3)c3ccccc3N(C3[C@H]4C[C@@H]5C[C@@H](C[C@H]3C5)C4)C2=O)c1 (stereo not given in full) equal to or greater than 9?
output: not fulfilled

input: Decide: is the reported value of pKi for CC(C)Cn1nnc(-c2cccc(NC(=O)NC3C(=O)N(CCC(C)(C)C)c4ccccc4N(c4ccccc4)C3=O)c2)n1 (stereo not given) equal to or greater than 9?
output: not fulfilled

input: Decide: is the reported value of pKi for CSc1cccc(NC(=O)NC2C(=O)N(CCC34C[C@H]5C[C@@H](C3)C[C@@H](C4)C5)c3ccccc3N(c3ccccc3)C2=O)c1 (stereo not given in full) equal to or greater than 9?
output: not fulfilled

----------
Target: Gastrin/cholecystokinin type B receptor (Cavia porcellus)
Assay: In vitro inhibition of binding of [3H]pCCK-8 against Cholecystokinin type B receptor of guinea pig cerebral cortex membranes
Mark each entry T if its Ki sits below 6 nM, and F for all others.

input: Hello, I'm reviewing records and need to know if Ki of CC(C)CCN1C(=O)C(NC(=O)Nc2ccccc2)C(=O)N(c2ccccc2F)c2ccccc21 (configuration not stated) is below 6 nM. Could you check?
output: F
